Data provenance is patent US20250197467A1.

Record form. Attribute: HEK-Blue IL-18R reporter EC50. Fill in for each entry.
assay_system: T1, IL-18 receptor (IL-18Rαβ) on cells (UniProt Q13478 19-541; O95256 20-599, limits assumed)
T1 sequence (looked up) 1: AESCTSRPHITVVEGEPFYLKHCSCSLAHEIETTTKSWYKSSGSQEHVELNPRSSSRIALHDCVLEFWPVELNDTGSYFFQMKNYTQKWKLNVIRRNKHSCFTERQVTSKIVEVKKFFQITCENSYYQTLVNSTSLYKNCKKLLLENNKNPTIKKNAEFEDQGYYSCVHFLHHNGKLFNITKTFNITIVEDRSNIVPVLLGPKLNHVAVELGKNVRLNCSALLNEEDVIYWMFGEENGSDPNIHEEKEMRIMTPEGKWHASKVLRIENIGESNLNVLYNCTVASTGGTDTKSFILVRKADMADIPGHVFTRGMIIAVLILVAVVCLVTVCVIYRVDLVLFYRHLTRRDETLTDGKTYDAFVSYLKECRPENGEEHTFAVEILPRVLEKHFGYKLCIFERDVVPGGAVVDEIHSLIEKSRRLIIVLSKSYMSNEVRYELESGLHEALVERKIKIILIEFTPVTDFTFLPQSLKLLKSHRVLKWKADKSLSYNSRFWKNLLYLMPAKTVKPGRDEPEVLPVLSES
T1 sequence (looked up) 2: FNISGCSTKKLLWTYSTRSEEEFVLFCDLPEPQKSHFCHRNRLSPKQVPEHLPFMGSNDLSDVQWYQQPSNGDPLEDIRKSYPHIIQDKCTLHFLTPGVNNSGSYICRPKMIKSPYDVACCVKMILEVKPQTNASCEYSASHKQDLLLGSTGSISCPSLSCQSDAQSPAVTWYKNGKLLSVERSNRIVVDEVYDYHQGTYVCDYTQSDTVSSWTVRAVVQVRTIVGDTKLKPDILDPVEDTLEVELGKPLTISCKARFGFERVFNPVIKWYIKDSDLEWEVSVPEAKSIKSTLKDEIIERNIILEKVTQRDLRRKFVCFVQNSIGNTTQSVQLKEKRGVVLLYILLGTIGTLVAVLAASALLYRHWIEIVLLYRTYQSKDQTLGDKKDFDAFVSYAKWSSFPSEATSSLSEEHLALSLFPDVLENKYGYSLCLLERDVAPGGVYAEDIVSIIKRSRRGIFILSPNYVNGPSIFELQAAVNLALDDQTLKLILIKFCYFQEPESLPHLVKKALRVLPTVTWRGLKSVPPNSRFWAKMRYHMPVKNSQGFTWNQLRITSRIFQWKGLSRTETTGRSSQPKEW
experiment_notes: cell-based or functional assay
Numbers only, in pM.

Worked set:
Name the reported HEK-Blue IL-18R reporter EC50 value associated with the binder SEQ ID NO 50 (ligand) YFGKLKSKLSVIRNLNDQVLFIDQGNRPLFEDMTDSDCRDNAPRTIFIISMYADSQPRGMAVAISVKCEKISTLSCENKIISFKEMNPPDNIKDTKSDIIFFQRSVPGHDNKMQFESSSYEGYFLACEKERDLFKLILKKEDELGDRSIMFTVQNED
1.77

Requested field: HEK-Blue IL-18R reporter EC50. Item: C146 (ligand) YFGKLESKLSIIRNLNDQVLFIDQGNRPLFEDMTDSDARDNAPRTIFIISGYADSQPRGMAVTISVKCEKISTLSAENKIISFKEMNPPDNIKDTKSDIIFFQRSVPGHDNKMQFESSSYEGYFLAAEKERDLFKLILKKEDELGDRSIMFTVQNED
0.8

Each binder below has a reported value. Please supply its HEK-Blue IL-18R reporter EC50.
1. C177 (ligand) YFGKLKSKLSIIRNLNDQVLFIDQGNRPLFEDMTDSDARDNAPRTIFIRSMYADSQPRGMAVAISVKCEKISTLSAENKIISFKEMNPPDNIKDTKSDIIFFQRSVPGHDNKMQFESSSYEGYFLAAEKERDLFKLILKKEDELGDRSIMFTVQNED
2. C181 (ligand) YFGKLKSKLSIIRNLNDQVLFIDQGNRPLFEDMTDSDARDNAPRTIFIISMYADSQPRGMAVAISVKCEKISTLSAENKIISFKEMNPPDNIKDTKSDIIFFQRSVPGHDNKMQFESSSYEGYFLAAEKERDLFKLILKKEDELGDRSIMFTEQNED
3. C147 (ligand) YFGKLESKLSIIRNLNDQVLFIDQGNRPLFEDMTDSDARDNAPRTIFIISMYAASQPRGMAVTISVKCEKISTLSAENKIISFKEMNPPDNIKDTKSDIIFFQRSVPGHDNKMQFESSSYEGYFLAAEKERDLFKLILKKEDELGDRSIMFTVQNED
4. C174 (ligand) YFGKLKSLLSIIRNLNDQVLFIDQGNRPLFEDMTDSDARDNAPRTIFIISMYADSQPRGMAVAISVKCEKISTLSAENKIISFKEMNPPDNIKDTKSDIIFFQRSVPGHDNKMQFESSSYEGYFLAAEKERDLFKLILKKEDELGDRSIMFTVQNED
5. C184 (ligand) YFGKLRSKLSIIRNLNDQVLFIDQGNRPLFEDMTDSDARDNAPRTIFIISMYADSQPRGMAVAISVKCEKISTLSAENKIISFKEMNPPDNIKDTKSDIIFFQRSVPGHDNKMQFESSSYEGYFLAAEKERDLFKLILKKEDELGDRSIMFTVQNED

1: 0.04; 2: 0.1; 3: 1; 4: 0.29; 5: 0.04
